Test system: HOP-62 NSCLC
ASSAY_NAME: NCI-60 one-dose screen, 48 h (100 = growth as untreated, 0 = no growth, -100 = all killed)
ASSAY_SETUP: 10 µM unless noted
The panel holds about 83,000 compounds, 20% with a hit somewhere; the sample as a whole holds those more often. Calls of active or inactive are those of the source. How the source made its calls: active means growth percent below 10; inactive means the rest.
MEASUREMENT_LABEL: growth

Consider the worked cases shown below.
COMPOUND: COc1ccc(-c2cc(C(=O)N=Nc3c(O)[nH]c4ccccc34)c3ccccc3n2)cc1OC
MEASUREMENT_TARGET: HOP-62 NSCLC
MEASUREMENT_LABEL: growth
RECORDED_VALUE: 93.2% (inactive)

COMPOUND: CNC(=O)c1cc(-c2ccc(NC(=O)Nc3ccc(N4CCN(C)CC4)c(C(F)(F)F)c3)cc2)nc2cccnc12
MEASUREMENT_TARGET: HOP-62 NSCLC
MEASUREMENT_LABEL: growth
RECORDED_VALUE: -78.3% (active)

COMPOUND: C[C@@H](Nc1c(C#N)cnc2ccc(-c3cnc(N)nc3)cc12)c1ccccc1
MEASUREMENT_TARGET: HOP-62 NSCLC
MEASUREMENT_LABEL: growth
RECORDED_VALUE: 31.1% (inactive)

COMPOUND: N#Cc1ccc(/C=N/NC(=O)c2[nH]c3ccc(Br)cc3c2-c2ccccc2)s1
MEASUREMENT_TARGET: HOP-62 NSCLC
MEASUREMENT_LABEL: growth
RECORDED_VALUE: 26.9% (inactive)

COMPOUND: COc1ccc(/C=C2\SC(=Nc3cc(C)[nH]n3)NC2=O)cc1
MEASUREMENT_TARGET: HOP-62 NSCLC
MEASUREMENT_LABEL: growth
RECORDED_VALUE: 85.2% (inactive)

Find the measured growth of "O=C(CSc1nc2sc3c(c2c(=O)n1-c1ccc(Cl)cc1)CCCC3)NNC(=O)Nc1cccc(C(F)(F)F)c1" and report it. 37.9% (inactive)

Find the measured growth of "CC(C)(C)Nc1nc2c(OCCc3ccccc3)cccn2c1-c1cccc(F)c1" and report it. -33.2% (active)

====

Consider the following compounds and their measured growth readings.
Test system: A549/ATCC NSCLC
ASSAY_NAME: NCI-60 one-dose screen, 48 h (100 = growth as untreated, 0 = no growth, -100 = all killed)
ASSAY_SETUP: 10 µM unless noted
This is part of a sample that, as a whole, favours compounds with a hit. Of some 83,000 tested, about 20% had one in any assay. The source made the active and inactive calls. The calls were made as follows: active = growth percent below 10; inactive = the rest.

COMPOUND: C=CCSc1ccc2c(c1)C(N1CCNCC1)=Nc1ccccc1O2
MEASUREMENT_TARGET: A549/ATCC NSCLC
growth: 71.7% [8.25 µM] (inactive)
//
COMPOUND: COc1ccc(NC2=CC(=O)C(C)=C(C)C2=O)cc1
MEASUREMENT_TARGET: A549/ATCC NSCLC
growth: 97.3% (inactive)
//
COMPOUND: COc1ccc(C(=O)/C=C/c2ccc(OCc3ccc(Cl)cc3)c(OC)c2)cc1OC
MEASUREMENT_TARGET: A549/ATCC NSCLC
growth: 70% (inactive)
//
COMPOUND: O=C1NC(=C(Cl)Cl)/C(=N/S(=O)(=O)N2CCCCC2CC2(C(F)(F)F)N=N2)N1 (stereo not given)
MEASUREMENT_TARGET: A549/ATCC NSCLC
growth: 111% (inactive)

Now consider the entry below.
Find the measured growth of "COc1ccc(-c2nc3ccc(-c4nnc(SCC(=O)Nc5ccc(C(=O)/C=C/c6ccc(Cl)cc6)cc5)o4)cc3[nH]2)cc1OC" and report it. 103% (inactive)
